Reported concentration at 24 h is given for each of the following compounds.
experimental protocol: clinical
protocol conditions: male, human, in vivo, po
property measured: concentration at 24 h (ng/mL)

C[C@@H]1CCO[C@H]2Cn3cc(C(=O)NCc4ccc(F)cc4F)c(=O)c(O)c3C(=O)N12 ... 1180
Nc1ccn([C@@H]2CS[C@H](CO)O2)c(=O)n1 ... 50.9
Nc1nc(NC2CC2)c2ncn([C@H]3C=C[C@@H](CO)C3)c2n1 ... 7.1

* * *

experimental protocol: clinical
protocol conditions: male, human, in vivo, po
property measured: Cmax

C[C@@H]1CCO[C@H]2Cn3cc(C(=O)NCc4ccc(F)cc4F)c(=O)c(O)c3C(=O)N12 [Dolutegravir, dolutegravir] ... 3750 ng/mL
Nc1nc(NC2CC2)c2ncn([C@H]3C=C[C@@H](CO)C3)c2n1 [Abacavir, abacavir] ... 4600 ng/mL
Nc1ccn([C@@H]2CS[C@H](CO)O2)c(=O)n1 [Lamivudine, lamivudine] ... 2980 ng/mL
